molecular target: G. intestinalis thymidine kinase (TK) (Giardia duodenalis, UniProt A8BRU1); construct: gene GL50803_008364; full length, 392 residues, 42 kDa, monomer (mass photometry); expressed in E. coli BL21(DE3)pLysS from pET-Z as His6-Z fusion, tag removed with TEV protease; two TK1-like domains (1-210 active, 211-392 degenerate); experiment: radiometric [[…]'-3H]thymidine phosphorylation, DE81 / Hybond-XL filter assay; assay type: biochemical
Sequence (A8BRU1 1-392): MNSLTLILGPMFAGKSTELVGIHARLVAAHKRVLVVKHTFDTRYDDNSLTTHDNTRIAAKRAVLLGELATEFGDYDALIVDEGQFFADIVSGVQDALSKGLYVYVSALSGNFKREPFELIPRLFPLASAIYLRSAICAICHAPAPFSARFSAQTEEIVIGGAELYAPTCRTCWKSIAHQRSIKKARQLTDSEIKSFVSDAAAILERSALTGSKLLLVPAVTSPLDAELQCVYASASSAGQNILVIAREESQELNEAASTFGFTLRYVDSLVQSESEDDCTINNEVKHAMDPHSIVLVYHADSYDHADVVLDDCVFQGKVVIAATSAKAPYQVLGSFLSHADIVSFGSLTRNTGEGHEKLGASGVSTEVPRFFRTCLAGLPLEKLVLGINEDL
MEASURED_ATTRIBUTE: IC50

Please report the recorded IC50 for `Cc1cn([C@H]2C[C@H](O)[C@@H](COP(=O)(O)OP(=O)(O)OP(=O)(O)O)O2)c(=O)[nH]c1=O` .
30 µM
